The origin of these recorded values is PubChem BioAssay AID1508601.

p53-positive nuclei, normalised values, listed per item
tgt: Cellular tumor antigen p53 (Homo sapiens)
measurement_protocol: nuclear p53 accumulation, HPV+ cells – imaging, p53-positive nuclei imaging, 24 h, 48 h (AID 1508601)
condition_info: 24/48 h, measured here: p53 positive nuclei at 24 h, Library stock concentration: 10 mM, stronger effect = higher value
About 85 (1%) of roughly 5,700 compounds were called active. The list comes from a sample in which actives are over-represented; it also holds close analogues and randomly drawn compounds.

compound: Cc1c(CN2CCN(C(=O)C(C)O)CC2)sc2c(N3CCOCC3)nc(-c3cnc(N)nc3)nc12 (stereo not given)
p53-positive nuclei, normalised, %: -0.0302

compound: CSCCC(NC=O)C(=O)NC(CC(C)C)C(=O)NC(Cc1ccccc1)C(=O)O (stereo not given)
p53-positive nuclei, normalised, %: -0.105

compound: CCCCCCCCc1cccc(NC(=O)C(N)COP(=O)(O)O)c1 (stereo not given)
p53-positive nuclei, normalised, %: -0.218

compound: Cc1ccc(NC(=O)c2ccc(CN3CCN(C)CC3)cc2)cc1Nc1nccc(-c2cccnc2)n1
p53-positive nuclei, normalised, %: -0.0433

compound: COc1ccc(CC(NC(=O)C(C)NC(=O)CN2CCOCC2)C(=O)NC(Cc2ccccc2)C(=O)[C@@]2(C)CO2)cc1 (stereo not given in full)
p53-positive nuclei, normalised, %: 144
